# system: DLG2_2, Q15700
# Sequence (Q15700 189-283): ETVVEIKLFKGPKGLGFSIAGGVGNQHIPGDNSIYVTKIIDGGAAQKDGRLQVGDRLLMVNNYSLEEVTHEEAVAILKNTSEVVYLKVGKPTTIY
# assay-method-text: holdup assay
# Set-up: key: below the threshold = too weak to quantify, mostly under pKd 3.1 to 4
# condition-context: plain residues with an end cap or a label only (N-terminal biotin on a linker: ttds)
Consider the following binders; for each one, report its pKd.
One number for each entry.

Look over these answered cases.
• FHPLGADSQV [SLC2A1, P11166] = 3.65
• SKPTRRETEV [HPV35-E6, P27228] = 5.27

I'd like to know its pKd. The binder in question is RLPKIKETTV [FRMPD4, Q14CM0]
5.5
